Provide the reported logD of each item.
# experiment.summary: method code SF-AS, from DOI: 10.1016/s0021-9673(01)95502-5
# assay.conditions: pH 3.4

So what's the measured logD for this one? O=C(O)CCC(=O)c1ccccc1
1.3

So what's the measured logD for this one? COc1ccc(C(=O)CCC(=O)O)cc1
1.38

So what's the measured logD for this one? CC(CC(=O)c1ccccc1)C(=O)O (stereo not drawn)
1.62

====

# experiment.summary: method code SF-AS, from DOI: 10.1016/s0021-9673(01)95502-5
# assay.conditions: pH 3.5
measurement.name: logD
Output: the number by itself.

So what's the measured logD for this one? CC(C)c1ccc(CC(=O)O)cc1
2.85

So what's the measured logD for this one? CC(CC(=O)c1ccc(C2CCCCC2)cc1)C(=O)O (configuration not stated)
4.08

So what's the measured logD for this one? CC(C)Oc1ccc(C(=O)CCC(=O)O)cc1
2.18

So what's the measured logD for this one? CC(CC(=O)O)CC(=O)c1ccc(C2CCCCC2)cc1 (configuration not stated)
4.38

So what's the measured logD for this one? COc1ccc(C(=O)CCC(=O)O)cc1Cl
1.98

So what's the measured logD for this one? CC(C)COc1ccc(C(=O)CC(C)C(=O)O)cc1Cl (configuration not stated)
3.6

So what's the measured logD for this one? COc1ccc(C(C)(O)C(=O)O)cc1Cl (configuration not stated)
1.26

So what's the measured logD for this one? COc1ccc(C(C)(O)C(=O)O)cc1 (configuration not stated)
0.81

So what's the measured logD for this one? CCc1ccc(CC(=O)O)cc1
2.43

So what's the measured logD for this one? CC(CC(=O)O)CC(=O)c1ccc(OC(C)C)c(Cl)c1 (configuration not stated)
3.4

So what's the measured logD for this one? CCCCCCOc1ccc(C(=O)CCC(=O)O)cc1
3.88

So what's the measured logD for this one? CC(C)Cc1ccc(C(=O)CCC(=O)O)cc1
3.2

So what's the measured logD for this one? O=C(O)CCC(=O)c1ccc(Br)cc1
2.28

So what's the measured logD for this one? CC(O)(C(=O)O)c1ccc(C2CCCCC2)cc1 (configuration not stated)
3.26

So what's the measured logD for this one? CC(C)Oc1ccc(C(=O)CCC(=O)O)cc1Cl
2.78

So what's the measured logD for this one? O=C(O)CCC(=O)c1ccc(C2CCCCC2)cc1
3.76

So what's the measured logD for this one? CCC(O)(C(=O)O)c1ccc(-c2ccccc2)cc1 (configuration not stated)
3.37
